The compounds listed here are annotated with their inhibition at 1 µM.
- tested.target: lipoxygenase (Rattus norvegicus, UniProt P12527)
- Construct: microsomal fraction containing lipoxygenase and cyclooxygenase; endogenous in cells; host or cells: RBL-1 (rat basophilic leukemia) cells, homogenate / microsomal fraction
- Sequence (P12527 1-673): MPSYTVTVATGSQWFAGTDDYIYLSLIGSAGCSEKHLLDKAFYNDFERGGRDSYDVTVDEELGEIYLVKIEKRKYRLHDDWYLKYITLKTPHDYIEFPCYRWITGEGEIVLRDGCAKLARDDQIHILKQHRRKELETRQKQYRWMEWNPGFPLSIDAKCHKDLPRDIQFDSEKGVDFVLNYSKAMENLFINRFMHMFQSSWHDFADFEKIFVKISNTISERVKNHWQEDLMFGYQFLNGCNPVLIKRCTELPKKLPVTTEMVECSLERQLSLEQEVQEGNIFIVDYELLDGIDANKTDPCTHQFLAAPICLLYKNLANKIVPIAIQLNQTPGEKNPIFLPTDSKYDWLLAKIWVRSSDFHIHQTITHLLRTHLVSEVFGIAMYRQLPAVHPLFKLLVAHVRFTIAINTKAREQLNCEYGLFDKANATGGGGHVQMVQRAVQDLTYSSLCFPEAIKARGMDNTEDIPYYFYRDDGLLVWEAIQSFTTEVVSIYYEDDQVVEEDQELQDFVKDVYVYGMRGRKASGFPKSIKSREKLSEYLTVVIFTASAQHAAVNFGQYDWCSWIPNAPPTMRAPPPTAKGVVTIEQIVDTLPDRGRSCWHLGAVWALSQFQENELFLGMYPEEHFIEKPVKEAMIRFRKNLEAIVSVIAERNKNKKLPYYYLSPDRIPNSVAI
- protocol.summary: Inhibition of lipoxygenase derived from rat basophilic leukemia (RBL-1) cells, products L1 (5,12-di-HETE) and L2 (5-HETE)
- Format: biochemical
- condition.description: read-out: % Inhibition of lipoxygenase (L2) formation
observation.type: inhibition at 1 µM (%)

* COc1ccc(Nc2ccc(O)cc2)c(C(=O)NCc2ccccc2)c1 | 97
* O=C(c1ccccc1Nc1ccc(O)cc1)N1CCCCC1 | 64
* O=C(NC1CCCCC1)c1ccccc1Nc1ccc(O)cc1 | 94
* COc1ccc(Nc2ccc(O)cc2)c(C(=O)N2CCCCC2)c1 | 96
* CCCNC(=O)c1ccccc1Nc1ccc(O)cc1 | 85
* O=C(c1ccccc1Nc1ccccc1O)N1CCCCC1 | 80
* O=C(NCc1ccccc1)c1ccccc1Nc1ccc(O)cc1 | 96
* NC(=O)c1ccccc1Nc1ccc(O)cc1 [Example 3(b), 2-(4-Hydroxyphenylamino)benzamide] | 83
* CCCN(CC)C(=O)c1ccccc1Nc1ccc(O)cc1 | 95
* O=C1C=CC(=Nc2ccccc2C(=O)N2CCCCC2)C=C1 | 82

###

- tested.target: cyclooxygenase (Rattus norvegicus, UniProt Q63921)
- Construct: microsomal fraction containing lipoxygenase and cyclooxygenase; endogenous in cells; host or cells: RBL-1 (rat basophilic leukemia) cells, homogenate / microsomal fraction
- Sequence (Q63921 27-602): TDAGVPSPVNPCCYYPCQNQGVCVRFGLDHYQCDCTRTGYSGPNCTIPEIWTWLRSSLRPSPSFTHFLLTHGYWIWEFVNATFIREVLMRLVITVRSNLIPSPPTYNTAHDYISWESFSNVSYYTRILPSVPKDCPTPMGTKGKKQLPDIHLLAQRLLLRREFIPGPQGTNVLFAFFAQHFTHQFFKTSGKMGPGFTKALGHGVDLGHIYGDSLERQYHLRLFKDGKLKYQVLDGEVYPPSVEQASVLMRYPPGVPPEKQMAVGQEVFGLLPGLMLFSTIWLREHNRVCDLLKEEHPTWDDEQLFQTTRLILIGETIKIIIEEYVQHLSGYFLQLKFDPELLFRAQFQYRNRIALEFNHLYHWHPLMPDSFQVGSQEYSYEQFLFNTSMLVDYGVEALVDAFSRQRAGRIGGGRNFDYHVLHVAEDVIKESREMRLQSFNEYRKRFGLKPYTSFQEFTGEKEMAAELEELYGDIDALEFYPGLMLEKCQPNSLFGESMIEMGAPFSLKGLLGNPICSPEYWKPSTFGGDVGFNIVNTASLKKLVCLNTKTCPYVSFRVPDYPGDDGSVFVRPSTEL
- protocol.summary: Inhibition of cyclooxygenase derived from rat basophilic leukemia (RBL-1) cells, product C1 (PGD2)
- Type: biochemical
- condition.description: dose of 1 μM, read-out: % Inhibition of cyclooxygenase (C1) formation
observation.type: inhibition at 1 µM (%)

* O=C(c1ccccc1Nc1ccc(O)cc1)N1CCCC1 | 0
* CCN(CC)C(=O)c1ccccc1Nc1ccc(O)cc1 | 0
* CCCN(CC)C(=O)c1ccccc1Nc1ccc(O)cc1 | 0
* NC(=O)c1ccccc1Nc1ccc(O)cc1 [Example 3(b), 2-(4-Hydroxyphenylamino)benzamide] | 14
* O=C1C=CC(=Nc2ccccc2C(=O)N2CCCCC2)C=C1 | 0
* CN(C)C(=O)c1ccccc1Nc1ccc(O)cc1 | 1
* O=C(NC1CCCCC1)c1ccccc1Nc1ccc(O)cc1 | 0
* CCN(C)C(=O)c1ccccc1Nc1ccc(O)cc1 | 0
* O=C(c1cc(Cl)ccc1Nc1ccc(O)cc1)N1CCCCC1 | 16
* O=C(c1ccc(Cl)cc1Nc1ccc(O)cc1)N1CCCCC1 | 12
